# Tested on: SR
# Method Description: NCI tumour cell line growth inhibition, 48 h
Active and inactive are the calls of the source. Rule as the data show it: active = GI50 up to about 1.1 µM and inactive = higher.
Listed here are compounds together with their documented GI50.

Completed entries (count: 10):
- Compound: "C[C@@]12C[C@@H](c3ccccc3O1)N1Cc3ccccc3CSC1=N2"
  GI50: "> 100 µM (inactive)"
- Compound: "Cc1nccc2c1cnc1ccnn12"
  GI50: "> 100 µM (inactive)"
- Compound: "CSc1[nH]nc(N)c1C(=O)Nc1ccc(Cl)cc1"
  GI50: "35.3 µM (inactive)"
- Compound: "COC(=O)c1nc(-c2ccc(Cl)c(Cl)c2)nc2ccc(Cl)cc12"
  GI50: "> 100 µM (inactive)"
- Compound: "O=C(Cc1nc2ccccc2o1)C(=O)Nc1ccc(Cl)cc1Cl"
  GI50: "13.1 µM (inactive)"
- Compound: "O=C1CC2(CCC(O)(c3ccco3)C(C(=O)c3ccco3)C2)C(=O)c2ccccc2N1 (centres undefined)"
  GI50: "> 100 µM (inactive)"
- Compound: "COc1ccc([N+](=O)[O-])cc1[I+]c1cc([N+](=O)[O-])ccc1OC"
  GI50: "12.3 µM (inactive)"
- Compound: "O=c1c2ccccc2sc2c(CO)ccc(NCCN3CCCCC3)c12"
  GI50: "0.497 µM (active)"
- Compound: "COc1ccc(C(OCC2OC(n3ccc(NC(=O)c4ccccc4)nc3=O)CC2OP2(=S)SCCS2)(c2ccccc2)c2ccc(OC)cc2)cc1 (centres undefined)"
  GI50: "48.1 µM (inactive)"
- Compound: "CC(C)C[C@H](NC(=O)[C@@H](N)Cc1cccc2ccccc12)B(O)O"
  GI50: "< 0.0154 µM (active)"

# returns recorded GI50 (system: SR) for COCCOC(C)C(=O)C(O)S(=O)(=O)O (centres undefined)
> 100 µM (inactive)

# returns recorded GI50 (system: SR) for `CCOP(=O)(Nc1ccc2oc(=O)c3ccccc3c2c1)OCC`
31.7 µM (inactive)

###

# Tested on: HCT-15
# Method Description: NCI tumour cell line growth inhibition, 48 h
Listed here are compounds together with their documented GI50.

Completed entries (count: 5):
- Compound: "O=C(O)c1cc2ccccc2c(Cc2c(O)c(C(=O)O)cc3ccccc23)c1O [PAMOIC ACID]"
  GI50: "> 100 µM"
- Compound: "C=C(Nc1nc2ccc(C)cc2s1)C(=O)C(CC)C(=O)C(CC)CC1C(=O)NC(=O)NC1=O (centres undefined)"
  GI50: "> 100 µM"
- Compound: "O=C(/C=C/c1csc(-c2ccccc2)n1)NCc1ccc(C(=O)NCCc2ccccc2)cc1"
  GI50: "93.5 µM"
- Compound: "COc1cc(Nc2nnc3n2S(=O)(=O)c2cc(C)c(Cl)cc2S3)cc(OC)c1"
  GI50: "17.7 µM"
- Compound: "O=C(Cc1nc2ccccc2o1)C(=O)Nc1ccc(Cl)cc1Cl"
  GI50: "> 100 µM"

// moving on: another record for GI50
Sample O=C(O)/C(Cl)=C(\Cl)C(=O)NC1C2CC3CC(C2)CC1C3 (centres undefined) — what was its GI50?
> 100 µM

###

Listed here are compounds together with their documented GI50.
# System: TK-10
# Method Description: NCI tumour cell line growth inhibition, 48 h
Active and inactive are the calls of the source. Rule as the data show it: active = GI50 up to about 1.1 µM and inactive = higher. Where a SMILES comes first, the peptide text is derived from it. [ ]: non-standard residue; d: D form. ξ: configuration not given here. ξThz(5,5-Me2) = CC1(C)SCNC1C(=O)O

- Compound: "COc1cc(/C=N/N=C2NCCCN2)ccc1O"
  GI50: "> 100 µM (inactive)"
- Compound: "CSCC[C@H](NC(=O)[C@H](CC(C)C)NC(=O)[C@H](Cc1c[nH]cn1)NC(=O)CNC(=O)C1N(C(=O)[C@@H](C)NC(=O)[C@H](Cc2c[nH]c3ccccc23)NC(=O)[C@H](CCC(N)=O)NC(=O)[C@@H](N)CC(N)=O)CSC1(C)C)C(N)=O (stereo partly drawn) (H-NQW[dA][ξThz(5,5-Me2)]GHLM-NH2)"
  GI50: "> 25 µM (inactive)"
- Compound: "C/C=C/C=C/C1=NN(c2cccc(S(=O)(=O)O)c2)C2(C1)SCC(=O)N2c1nc2ccccc2s1 (stereo not drawn)"
  GI50: "47.8 µM (inactive)"
- Compound: "COc1cc(-c2c(C#N)c(N)c(C#N)c3c2COc2ccccc2-3)cc(OC)c1OC"
  GI50: "17.6 µM (inactive)"
- Compound: "CCOC(=O)/C(=C/Nc1c(C)n(C)n(-c2ccccc2)c1=O)C(C)=O"
  GI50: "> 100 µM (inactive)"

Sample N#Cc1c(-c2ccc(Cl)cc2)c2c(n(C3OC(CO)C(O)C(O)C3O)c1=S)CCCC2 (stereo not drawn) — what was its GI50?
72.4 µM (inactive)

Sample `CC(C)NC(=O)OCc1c(COC(=O)NC(C)C)n(C)c2c1ccc1ccccc12` — what was its GI50?
1.63 µM (inactive)

Sample Nc1ccc(C(=O)NN2C(=O)C(Cl)C2c2ccccc2)cc1 (stereo not drawn) — what was its GI50?
> 100 µM (inactive)

###

# System: SK-MEL-5
# Method Description: NCI tumour cell line growth inhibition, 48 h
Active and inactive are the calls of the source. No stated cut-off is given here; in the data, active = GI50 up to about 1.1 µM and inactive = higher.
Write down the outcome that applies. Available outcomes: active, inactive

- Compound: "Cc1cc(CN(Cc2ccccc2)Cc2nc3ccccc3[nH]2)c(O)c(CN(Cc2nc3ccccc3[nH]2)Cc2nc3ccccc3[nH]2)c1"
  Assigned Label: "inactive"
- Compound: "Cc1coc2c1CC1OC1(C)CCC1OC1(C)C2 (configuration not stated)"
  Assigned Label: "inactive"

What is the recorded call for this compound in the test? `COc1cccc(CCN2CCN(CCCc3ccccc3)CC2)c1`
inactive

What is the recorded call for this compound in the test? CCCCCCCCCCCCCCCCOCC(COP(=O)([O-])OCC[N+](C)(C)C)OCCCCCCCCCCCCCCCC (configuration not stated)
inactive

What is the recorded call for this compound in the test? `C#CCOCn1cnc2c(Cl)ncnc21`
inactive

What is the recorded call for this compound in the test? `C/C=C(/C)C(=O)O[C@H]1C[C@@H]2[C@@H](O)c3occ(C)c3C[C@]2(C)[C@@H](C)C1`
inactive

What is the recorded call for this compound in the test? O=C(/C(=N\Nc1ccc([N+](=O)[O-])cc1[N+](=O)[O-])NC12CC3CC(CC(C3)C1)C2)C(Br)C(=O)c1ccccc1 (configuration not stated)
active

###

Listed here are compounds together with their documented GI50.
# Test system: SF-539
# Method Description: NCI tumour cell line growth inhibition, 48 h
Activity calls are given as the source filed them. Rule as the data show it: active = GI50 up to about 1.1 µM and inactive = higher.

Completed entries (count: 3):
- Compound: "NC(c1ccccc1)(C(F)(F)F)P1(=O)OC(=O)c2ccccc2O1 (stereo not given)"
  Recorded Metric: "GI50"
  Observed Value: "> 100 µM (inactive)"
- Compound: "C=CC(C)(C)c1cc([C@@H]2COc3cc(O)ccc3C2=O)c(O)c(OC)c1OC"
  Recorded Metric: "GI50"
  Observed Value: "18.8 µM (inactive)"
- Compound: "CC(=O)C1=C(C)N2C(=NC3=C(CCc4ccccc43)C2c2ccc(F)cc2)S1 (stereo not given)"
  Recorded Metric: "GI50"
  Observed Value: "80.5 µM (inactive)"

# returns recorded GI50 (system: SF-539) for `O=c1sc2c(s1)-c1sc(=O)sc1SS2`
41.5 µM (inactive)

# returns recorded GI50 (system: SF-539) for `O=C(Cc1nc2ccccc2o1)C(=O)Nc1ccc(Cl)cc1Cl`
> 100 µM (inactive)

###

Listed here are compounds together with their documented GI50.
# System: HCT-15

- Compound: "C=C1CC(OC)(C(O)C(=O)N[C@H]2OCO[C@H]3C2O[C@H](C[C@@H](CO)OC)C(C)(C)C3OC)O[C@H](C)[C@@H]1C (some centres undefined)"
  Observed Value: "< 0.00931 µM"

# returns recorded GI50 (system: HCT-15) for `CSc1[nH]nc(N)c1C(=O)Nc1ccc(Cl)cc1`
46.2 µM

# returns recorded GI50 (system: HCT-15) for `Cc1sc2ncnc(NCCc3ccccc3)c2c1C`
21.5 µM

# returns recorded GI50 (system: HCT-15) for `NNC(=O)COc1nc(-c2cccs2)nc2ccc(I)cc12`
20.7 µM

###

# Tested on: SK-MEL-28
# Method Description: NCI tumour cell line growth inhibition, 48 h
The source made the active and inactive calls. Rule as the data show it: active = GI50 up to about 1.1 µM and inactive = higher.
Write down the outcome that applies. Available outcomes: active, inactive

- Compound: "Nc1cccc(OCC2CCCN3CCCCC23)c1 (centres undefined)"
  Assigned Label: "inactive"
- Compound: "CNC(=O)C(C)NC(=O)C(Cc1ccccc1)NC(=O)OC(C)(C)C (centres undefined)"
  Assigned Label: "inactive"
- Compound: "Cc1[nH]c(=O)nc(N/N=C/c2ccc(O)cc2)c1C(=O)Nc1ccc(O)cc1"
  Assigned Label: "inactive"
- Compound: "N#C/C(=C\\c1ccc2[nH]ccc2c1)C(=O)NCCCCNC(=O)/C(C#N)=C/c1ccc2[nH]ccc2c1"
  Assigned Label: "inactive"
- Compound: "C=C(Cl)C(C)(Cl)CCC(Br)C(C)(C)Cl (centres undefined)"
  Assigned Label: "inactive"
- Compound: "COc1cc(C2c3cc4c(cc3OC(Nc3ccc(C(=O)O)cc3)C2C)OCO4)cc(OC)c1OC (centres undefined)"
  Assigned Label: "inactive"
- Compound: "CCCCCCCCCCCC(=O)OCCOCCOCCOCCOCCOCc1ccc(OC)cc1"
  Assigned Label: "inactive"
- Compound: "CC(C)(C)c1ccc(O)c(C(O)c2ccccn2)c1 (centres undefined)"
  Assigned Label: "inactive"
- Compound: "CC(C)c1cccc(C(C)C)c1N1C(=O)C(=O)C(c2nc3ccccc3o2)C(=O)C1=O"
  Assigned Label: "inactive"
- Compound: "COc1ccc(OC)c(C2CCc3cnc4nc(N)nc(N)c4c3C2)c1 (centres undefined)"
  Assigned Label: "inactive"

What is the recorded call for this compound in the test? NC(c1ccccc1)(C(F)(F)F)P1(=O)OC(=O)c2ccccc2O1 (centres undefined)
inactive

What is the recorded call for this compound in the test? CCCNC(C#N)c1ccc(OCCCCCCCCCCOc2ccc(C(C#N)NCCC)cc2)cc1 (centres undefined)
inactive

// provenance: ChEMBL document CHEMBL1201862
